System: Vero E6 infected with SARS-CoV-2
Test: morphology score (similarity to uninfected cells); higher = more like uninfected cells
Details: 24 h
Reported morphology score values for the following compounds.
reported-metric: morphology score

1. Cc1nc2n(c(=O)c1CCN1CCC(c3noc4cc(F)ccc34)CC1)CCCC2O (stereo unspecified) [paliperidone] (10 µM); 0.08
2. C=CCN1CCc2cc(O)c(O)cc2[C@H](c2ccccc2)C1 (10 µM); -0.0101
3. CCCCC1=NC2(CCCC2)C(=O)N1Cc1ccc(-c2ccccc2-c2nnn[nH]2)cc1 [irbesartan] (10 µM); 0.0469
4. Fc1ccc(C(c2ccccc2)(c2ccccc2F)n2ccnc2)cc1 (stereo unspecified) [flutrimazole] (10 µM); 0.166
5. CC(C)(C)NCC(O)c1cc(Cl)c(N)c(C(F)(F)F)c1 (stereo unspecified) [mabuterol] (10 µM); -0.0501
6. CC[C@H]1OC(=O)C[C@@H](O)[C@H](C)[C@@H](O[C@@H]2O[C@H](C)C[C@H](N(C)C)[C@H]2O)[C@@H](CC=O)C[C@@H](C)C(=O)/C=C/[C@]2(C)O[C@H]2[C@@H]1C [rosamicin] (10 µM); 0.129

###

Tested on: Vero E6 infected with SARS-CoV-2
Assay: morphology score (similarity to uninfected cells); higher = more like uninfected cells
Details: 24 h
Assign Fulfilled whenever morphology score does not fall below 0.1; assign Not fulfilled whenever it does.

1. CC(=O)N(CC(O)CO)c1c(I)c(C(=O)NCC(O)CO)c(I)c(C(=O)NCC(O)CO)c1I (stereo unspecified) [iohexol] (10 µM); Fulfilled
2. COc1cc2ncnc(Nc3ccc(F)c(Cl)c3)c2cc1OCCCN1CCOCC1 [gefitinib] (10 µM); Not fulfilled
3. CC(C)(CCCCCC(O)CCCCCC(C)(C)C(=O)O)C(=O)O [bempedoic-acid] (10 µM); Not fulfilled
4. O=c1c(-c2ccc(O)cc2)coc2c([C@@H]3O[C@H](CO)[C@@H](O)[C@H](O)[C@H]3O)c(O)ccc12 [puerarin] (10 µM); Not fulfilled
5. O=C(O)C1=CCCNC1 [guvacine] (10 µM); Fulfilled

###

Reported morphology score values for the following compounds.
Tested on: Vero E6 infected with SARS-CoV-2
Test: morphology score (similarity to uninfected cells); higher = more like uninfected cells
Settings: 24 h
reported-metric: morphology score

1. N#Cc1ccc(COC[C@H]2O[C@@H](n3c(NCc4ccc(Cl)c(Cl)c4)nc4c(N)ncnc43)[C@H](O)[C@@H]2O)cc1 (10 µM); 0.0983
2. CC(C)C[C@H](NC(=O)CNC(=O)c1cc(Cl)ccc1Cl)B1OC(=O)C(CC(=O)O)(CC(=O)O)O1 [ixazomib-citrate] (0.833333 µM); 0.101
3. Cc1cc(C2CCCCC2)n(O)c(=O)c1 [ciclopirox] (0.833333 µM); 0.0975

###

Test system: Vero E6 infected with SARS-CoV-2
Assay: morphology score (similarity to uninfected cells); higher = more like uninfected cells
Conditions: 24 h
reported-metric: morphology score

1. NCc1ccccc1CC(=O)N[C@@H]1C(=O)N2C(C(=O)O)=C(CSc3nnnn3CC(=O)O)CS[C@H]12 [ceforanide] (10 µM); 0.13
2. CCn1cnc(C(=O)NC)c1C(=O)NC [ethimizol] (10 µM); 0.114
3. N[C@@H](C(=O)N[C@@H]1C(=O)N2C(C(=O)O)=C(Cl)CS[C@H]12)c1ccccc1 [cefaclor] (10 µM); 0.0453
4. O=C(Nc1cccc(Cl)c1)c1ccccn1 (10 µM); 0.228
5. N=C1N[C@H]2[C@H](CS[C@H]2CCCCC(=O)O)N1 [2-iminobiotin] (10 µM); 0.0808
6. CCCC(=O)O[C@]1(C(=O)CCl)[C@@H](C)C[C@H]2[C@@H]3CCC4=CC(=O)C=C[C@]4(C)[C@@]3(F)C(=O)C[C@@]21C [clobetasone-butyrate] (10 µM); 0.344
